target: PRKAA2 (human) (UniProt P54646); assay: KINOMEscan competition binding; details: compound 1.0 µM
Sequence (P54646 whole entry, looked up): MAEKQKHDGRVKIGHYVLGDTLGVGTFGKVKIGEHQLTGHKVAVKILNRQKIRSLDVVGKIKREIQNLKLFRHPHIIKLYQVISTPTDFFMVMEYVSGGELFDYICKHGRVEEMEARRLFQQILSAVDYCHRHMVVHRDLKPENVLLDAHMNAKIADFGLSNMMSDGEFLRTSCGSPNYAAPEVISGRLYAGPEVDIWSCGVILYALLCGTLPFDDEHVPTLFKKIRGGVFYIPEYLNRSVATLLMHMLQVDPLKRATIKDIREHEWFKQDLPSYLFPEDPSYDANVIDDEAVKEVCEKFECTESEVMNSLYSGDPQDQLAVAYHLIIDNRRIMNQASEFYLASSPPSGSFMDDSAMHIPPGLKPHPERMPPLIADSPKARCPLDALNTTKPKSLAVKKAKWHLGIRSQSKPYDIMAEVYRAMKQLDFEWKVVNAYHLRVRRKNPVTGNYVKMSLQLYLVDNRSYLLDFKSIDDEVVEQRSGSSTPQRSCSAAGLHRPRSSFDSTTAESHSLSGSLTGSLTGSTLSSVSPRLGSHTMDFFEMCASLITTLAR
PROPERTY_NAME: kinase still bound, per cent of control (%)

[
  {
    "MOL": "CN(C)C/C=C/C(=O)Nc1cccc(C(=O)Nc2ccc(Nc3nccc(/C(C#N)=C4\\Nc5ccccc5S4)n3)cc2)c1",
    "SUBJECT_OF_TEST": "PRKAA2 (human) (UniProt P54646)",
    "OBSERVED_MEASUREMENT": 100
  },
  {
    "MOL": "CN(C)C/C=C/C(=O)Nc1cccc(C(=O)Nc2ccc(Nc3nccc(-c4cccnc4)n3)cc2)c1",
    "SUBJECT_OF_TEST": "PRKAA2 (human) (UniProt P54646)",
    "OBSERVED_MEASUREMENT": 81
  },
  {
    "MOL": "Cc1cc(NC(=O)c2cccc(NC(=O)/C=C/CN(C)C)c2)ccc1Nc1nccc(-c2cccnc2)n1",
    "SUBJECT_OF_TEST": "PRKAA2 (human) (UniProt P54646)",
    "OBSERVED_MEASUREMENT": 84
  },
  {
    "MOL": "CN(C)C/C=C/C(=O)Nc1cccc(C(=O)Nc2ccc(Nc3nccc(-c4c(-c5ccccc5)nn5ccccc45)n3)cc2)c1",
    "SUBJECT_OF_TEST": "PRKAA2 (human) (UniProt P54646)",
    "OBSERVED_MEASUREMENT": 90
  }
]

====

# kinase still bound, per cent of control listing for each entry below
target: LIMK2 (human) (UniProt P53671); assay: KINOMEscan competition binding; details: compound 1.0 µM
Sequence (P53671 whole entry, looked up): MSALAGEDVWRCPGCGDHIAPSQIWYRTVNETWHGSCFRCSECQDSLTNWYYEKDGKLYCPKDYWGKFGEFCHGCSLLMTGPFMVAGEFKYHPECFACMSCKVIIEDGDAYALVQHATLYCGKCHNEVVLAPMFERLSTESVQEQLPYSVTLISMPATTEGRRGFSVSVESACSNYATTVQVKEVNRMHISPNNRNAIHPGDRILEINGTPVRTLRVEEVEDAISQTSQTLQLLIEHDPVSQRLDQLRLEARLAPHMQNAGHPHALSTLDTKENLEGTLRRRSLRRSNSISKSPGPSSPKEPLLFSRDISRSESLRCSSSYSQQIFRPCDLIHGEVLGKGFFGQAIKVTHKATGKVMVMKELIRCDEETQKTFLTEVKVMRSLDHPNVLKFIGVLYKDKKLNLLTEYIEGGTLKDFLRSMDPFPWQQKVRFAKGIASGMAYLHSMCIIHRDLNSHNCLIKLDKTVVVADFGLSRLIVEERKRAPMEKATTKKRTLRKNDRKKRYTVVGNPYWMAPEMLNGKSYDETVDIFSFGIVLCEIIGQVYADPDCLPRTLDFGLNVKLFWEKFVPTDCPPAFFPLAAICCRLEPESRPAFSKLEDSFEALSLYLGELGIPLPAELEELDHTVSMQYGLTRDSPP

[
  {
    "MOL": "Cc1cc(NC(=O)c2cccc(NC(=O)/C=C/CN(C)C)c2)ccc1Nc1nccc(-c2cccnc2)n1",
    "kinase still bound, per cent of control [%]": 98
  },
  {
    "MOL": "CN(C)C/C=C/C(=O)Nc1cccc(C(=O)Nc2ccc(Nc3nccc(-c4c(-c5ccccc5)nn5ccccc45)n3)cc2)c1",
    "kinase still bound, per cent of control [%]": 100
  },
  {
    "MOL": "CN(C)C/C=C/C(=O)Nc1cccc(C(=O)Nc2ccc(Nc3nccc(/C(C#N)=C4\\Nc5ccccc5S4)n3)cc2)c1",
    "kinase still bound, per cent of control [%]": 97
  },
  {
    "MOL": "CN(C)C/C=C/C(=O)Nc1cccc(C(=O)Nc2ccc(Nc3nccc(-c4cccnc4)n3)cc2)c1",
    "kinase still bound, per cent of control [%]": 82
  }
]

====

Documented kinase still bound, per cent of control across a set of compounds
target: PIP5K1C (human) (UniProt O60331); experiment: KINOMEscan competition binding; conditions: compound 1.0 µM
Sequence (O60331 whole entry, looked up): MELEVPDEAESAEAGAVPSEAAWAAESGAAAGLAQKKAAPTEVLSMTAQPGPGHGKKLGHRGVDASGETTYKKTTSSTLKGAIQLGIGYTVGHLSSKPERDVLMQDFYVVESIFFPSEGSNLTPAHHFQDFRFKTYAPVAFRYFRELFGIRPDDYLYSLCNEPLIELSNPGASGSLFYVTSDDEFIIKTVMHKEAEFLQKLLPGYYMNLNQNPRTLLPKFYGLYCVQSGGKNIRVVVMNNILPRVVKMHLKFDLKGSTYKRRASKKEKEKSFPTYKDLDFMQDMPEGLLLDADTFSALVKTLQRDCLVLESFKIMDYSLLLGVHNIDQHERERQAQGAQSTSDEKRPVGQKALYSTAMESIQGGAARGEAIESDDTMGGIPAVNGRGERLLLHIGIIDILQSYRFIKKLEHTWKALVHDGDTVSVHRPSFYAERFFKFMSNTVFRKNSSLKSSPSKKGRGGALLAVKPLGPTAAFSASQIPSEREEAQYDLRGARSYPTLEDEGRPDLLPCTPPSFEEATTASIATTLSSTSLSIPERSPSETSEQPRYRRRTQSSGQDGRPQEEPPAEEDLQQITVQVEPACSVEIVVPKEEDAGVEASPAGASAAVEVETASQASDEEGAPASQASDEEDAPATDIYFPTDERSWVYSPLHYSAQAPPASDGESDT

[
  {
    "MOL": "CN(C)C/C=C/C(=O)Nc1cccc(C(=O)Nc2ccc(Nc3nccc(-c4cccnc4)n3)cc2)c1",
    "kinase still bound, per cent of control, %": 22
  },
  {
    "MOL": "CN(C)C/C=C/C(=O)Nc1cccc(C(=O)Nc2ccc(Nc3nccc(-c4c(-c5ccccc5)nn5ccccc45)n3)cc2)c1",
    "kinase still bound, per cent of control, %": 87
  },
  {
    "MOL": "Cc1cc(NC(=O)c2cccc(NC(=O)/C=C/CN(C)C)c2)ccc1Nc1nccc(-c2cccnc2)n1",
    "kinase still bound, per cent of control, %": 93
  },
  {
    "MOL": "CN(C)C/C=C/C(=O)Nc1cccc(C(=O)Nc2ccc(Nc3nccc(/C(C#N)=C4\\Nc5ccccc5S4)n3)cc2)c1",
    "kinase still bound, per cent of control, %": 100
  }
]

====

Listing of recorded kinase still bound, per cent of control by entry.
molecular target: ERN1 (human); assay: KINOMEscan competition binding; details: compound 1.0 µM

[
  {
    "MOL": "CN(C)C/C=C/C(=O)Nc1cccc(C(=O)Nc2ccc(Nc3nccc(-c4cccnc4)n3)cc2)c1",
    "kinase still bound, per cent of control": "78%"
  },
  {
    "MOL": "CN(C)C/C=C/C(=O)Nc1cccc(C(=O)Nc2ccc(Nc3nccc(-c4c(-c5ccccc5)nn5ccccc45)n3)cc2)c1",
    "kinase still bound, per cent of control": "100%"
  },
  {
    "MOL": "CN(C)C/C=C/C(=O)Nc1cccc(C(=O)Nc2ccc(Nc3nccc(/C(C#N)=C4\\Nc5ccccc5S4)n3)cc2)c1",
    "kinase still bound, per cent of control": "100%"
  },
  {
    "MOL": "Cc1cc(NC(=O)c2cccc(NC(=O)/C=C/CN(C)C)c2)ccc1Nc1nccc(-c2cccnc2)n1",
    "kinase still bound, per cent of control": "73%"
  }
]

====

Listing of recorded kinase still bound, per cent of control by entry.
biological target: AXL (human); assay: KINOMEscan competition binding; settings: compound 1.0 µM
PROPERTY_NAME: kinase still bound, per cent of control

[
  {
    "MOL": "CN(C)C/C=C/C(=O)Nc1cccc(C(=O)Nc2ccc(Nc3nccc(-c4c(-c5ccccc5)nn5ccccc45)n3)cc2)c1",
    "SUBJECT_OF_TEST": "AXL (human)",
    "PROPERTY_NAME": "kinase still bound, per cent of control",
    "OBSERVED_MEASUREMENT": "58%"
  },
  {
    "MOL": "CN(C)C/C=C/C(=O)Nc1cccc(C(=O)Nc2ccc(Nc3nccc(/C(C#N)=C4\\Nc5ccccc5S4)n3)cc2)c1",
    "SUBJECT_OF_TEST": "AXL (human)",
    "PROPERTY_NAME": "kinase still bound, per cent of control",
    "OBSERVED_MEASUREMENT": "100%"
  },
  {
    "MOL": "CN(C)C/C=C/C(=O)Nc1cccc(C(=O)Nc2ccc(Nc3nccc(-c4cccnc4)n3)cc2)c1",
    "SUBJECT_OF_TEST": "AXL (human)",
    "PROPERTY_NAME": "kinase still bound, per cent of control",
    "OBSERVED_MEASUREMENT": "100%"
  },
  {
    "MOL": "Cc1cc(NC(=O)c2cccc(NC(=O)/C=C/CN(C)C)c2)ccc1Nc1nccc(-c2cccnc2)n1",
    "SUBJECT_OF_TEST": "AXL (human)",
    "PROPERTY_NAME": "kinase still bound, per cent of control",
    "OBSERVED_MEASUREMENT": "77%"
  }
]

====

biological target: MAPK6 (human); experiment: KINOMEscan competition binding; conditions: compound 1.0 µM

[
  {
    "MOL": "CN(C)C/C=C/C(=O)Nc1cccc(C(=O)Nc2ccc(Nc3nccc(/C(C#N)=C4\\Nc5ccccc5S4)n3)cc2)c1",
    "UNITS_OF_MEASURE": "%",
    "kinase still bound, per cent of control": 27
  },
  {
    "MOL": "CN(C)C/C=C/C(=O)Nc1cccc(C(=O)Nc2ccc(Nc3nccc(-c4cccnc4)n3)cc2)c1",
    "UNITS_OF_MEASURE": "%",
    "kinase still bound, per cent of control": 0.4
  },
  {
    "MOL": "Cc1cc(NC(=O)c2cccc(NC(=O)/C=C/CN(C)C)c2)ccc1Nc1nccc(-c2cccnc2)n1",
    "UNITS_OF_MEASURE": "%",
    "kinase still bound, per cent of control": 37
  },
  {
    "MOL": "CN(C)C/C=C/C(=O)Nc1cccc(C(=O)Nc2ccc(Nc3nccc(-c4c(-c5ccccc5)nn5ccccc45)n3)cc2)c1",
    "UNITS_OF_MEASURE": "%",
    "kinase still bound, per cent of control": 71
  }
]

====

biological target: PIK3CB (human) (UniProt P42338); assay: KINOMEscan competition binding; conditions: compound 1.0 µM
Sequence (P42338 whole entry, looked up): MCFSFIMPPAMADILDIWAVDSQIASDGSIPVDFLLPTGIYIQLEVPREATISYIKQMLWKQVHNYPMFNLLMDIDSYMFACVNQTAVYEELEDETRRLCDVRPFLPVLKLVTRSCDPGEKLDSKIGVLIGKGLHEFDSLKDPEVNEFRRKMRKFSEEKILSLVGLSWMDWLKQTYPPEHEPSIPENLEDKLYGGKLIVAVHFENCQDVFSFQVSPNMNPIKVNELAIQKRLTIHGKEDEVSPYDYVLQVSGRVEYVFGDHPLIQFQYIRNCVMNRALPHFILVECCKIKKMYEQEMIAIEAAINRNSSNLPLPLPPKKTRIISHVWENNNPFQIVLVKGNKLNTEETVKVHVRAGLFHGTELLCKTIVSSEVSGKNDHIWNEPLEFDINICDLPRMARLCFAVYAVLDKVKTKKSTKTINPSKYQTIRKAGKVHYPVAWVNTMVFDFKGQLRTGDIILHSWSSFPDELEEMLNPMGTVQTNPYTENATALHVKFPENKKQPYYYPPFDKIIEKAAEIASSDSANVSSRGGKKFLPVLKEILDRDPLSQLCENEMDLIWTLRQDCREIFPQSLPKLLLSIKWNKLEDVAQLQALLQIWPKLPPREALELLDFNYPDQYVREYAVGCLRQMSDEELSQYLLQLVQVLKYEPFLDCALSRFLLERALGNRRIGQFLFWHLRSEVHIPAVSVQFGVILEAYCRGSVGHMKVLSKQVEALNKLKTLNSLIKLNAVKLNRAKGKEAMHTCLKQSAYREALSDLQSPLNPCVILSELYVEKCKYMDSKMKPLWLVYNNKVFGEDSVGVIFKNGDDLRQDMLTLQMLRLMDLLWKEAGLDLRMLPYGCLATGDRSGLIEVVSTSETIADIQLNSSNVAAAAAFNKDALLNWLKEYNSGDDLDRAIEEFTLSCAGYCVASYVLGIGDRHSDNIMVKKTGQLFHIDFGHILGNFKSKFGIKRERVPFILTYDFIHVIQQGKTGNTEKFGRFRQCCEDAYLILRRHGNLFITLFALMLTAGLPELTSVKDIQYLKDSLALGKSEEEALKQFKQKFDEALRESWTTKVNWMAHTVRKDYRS
PROPERTY_NAME: kinase still bound, per cent of control (%)

[
  {
    "MOL": "CN(C)C/C=C/C(=O)Nc1cccc(C(=O)Nc2ccc(Nc3nccc(-c4cccnc4)n3)cc2)c1",
    "SUBJECT_OF_TEST": "PIK3CB (human) (UniProt P42338)",
    "OBSERVED_MEASUREMENT": 94
  },
  {
    "MOL": "CN(C)C/C=C/C(=O)Nc1cccc(C(=O)Nc2ccc(Nc3nccc(/C(C#N)=C4\\Nc5ccccc5S4)n3)cc2)c1",
    "SUBJECT_OF_TEST": "PIK3CB (human) (UniProt P42338)",
    "OBSERVED_MEASUREMENT": 100
  },
  {
    "MOL": "CN(C)C/C=C/C(=O)Nc1cccc(C(=O)Nc2ccc(Nc3nccc(-c4c(-c5ccccc5)nn5ccccc45)n3)cc2)c1",
    "SUBJECT_OF_TEST": "PIK3CB (human) (UniProt P42338)",
    "OBSERVED_MEASUREMENT": 100
  },
  {
    "MOL": "Cc1cc(NC(=O)c2cccc(NC(=O)/C=C/CN(C)C)c2)ccc1Nc1nccc(-c2cccnc2)n1",
    "SUBJECT_OF_TEST": "PIK3CB (human) (UniProt P42338)",
    "OBSERVED_MEASUREMENT": 79
  }
]
